These data points were gathered from the nanobody polyreactivity screen of Harvey et al. (2022).

# Test Name: yeast display, Sf9 membrane polyspecificity reagent, FACS + sequencing; frameworks hold sequencing errors
Attribute Measured: polyreactivity (PSR sort gate)

Worked set:
[[record]]
seq_text = "QVQLVESGGGLVQAGGSLRLSCAASGLIITAYAMGWYRQAPGKERELVAAITGSGGRTYYADSVKGRFTISRDNAKNTVYLQMNSLKPEDTAVYYCAADFPARGSSTSDYWGQGTQVTVSS"
attribute_measured = "polyreactivity (PSR sort gate)"
measured_value = "high polyreactivity"

[[record]]
seq_text = "QVQLVESGGGLVQAGGSLRLSCAASGFIFGRYAMGWYRQSPGKERELVAVISKRGDNTYYADSVKGRFTISRDNAKNTVYLQMNSLKPEDTAVYYCNVKRYGGRSDYWGQGTQVTVSS"
attribute_measured = "polyreactivity (PSR sort gate)"
measured_value = "high polyreactivity"

[[record]]
seq_text = "QVQLVESGGGLVQAGGSLRLSCAASRFYTMGWYRQAPGKERELVAAISWSGGDTYYADSVKGRFTISRDNAKNTVYLQMNSLKPEDTAVYYCAKKTIGSYVHEPYYYWGQGTQVTVSS"
attribute_measured = "polyreactivity (PSR sort gate)"
measured_value = "low polyreactivity"

[[record]]
seq_text = "QVHLVESGGGLVKAGGSLGLSCSPSGSTLSFNAMGWYRQAPGKERELVAGITYSGGSTYYADSVKGRFTISRDNAKNTFYLLMNSLKPEDTAVYYCNKASGVYYGHLDYWGQGTQVTVSS"
attribute_measured = "polyreactivity (PSR sort gate)"
measured_value = "low polyreactivity"


Item QVQLVESGGGLVQAGGSLRLSCAASGRIFVGNTMGWYRQAPGKERELVAAITRSGGSTYYADSAKGRFTISRDNAKNTVYLQMNSLKPEDTAVYYCAARRRGDYWGQGTQVTVSS has what recorded polyreactivity (PSR sort gate)? high polyreactivity
